# protocol.description: Oral bioavailability in cynomolgus monkey at 0.625 mg/kg by LC-MS/MS method
# Format: ADME, organism-based, Macaca fascicularis
# conditions: in vivo

{"smiles.representation": "C[C@H]1Cc2c(nnn2-c2ncc(F)cn2)CN1C(=O)c1cccc(C(F)(F)F)c1F", "bioavailability [%]": 30}

====

# protocol.description: AUC (24 hrs) in Sprague-Dawley rat at 1 mg/kg, iv or 5 mg/kg, po by LC-MS/MS method
# Assay type: ADME, organism-based
# conditions: in vivo

{"compound": "C[C@H]1Cc2c(nnn2-c2ncc(F)cn2)CN1C(=O)c1ccnc(C(F)(F)F)c1F [ZANVIPIXANT]", "unit.abbrev": "ng·h/mL", "AUC at 24 h": 17500}

Source of measurements: ChEMBL document CHEMBL4028916
